# TARGET_OF_ASSAY: Human PI3K beta (Homo sapiens, UniProt P42338)
# Construct: His (N); host or cells: SF9 insect cells (baculovirus)
# Sequence (P42338 whole entry): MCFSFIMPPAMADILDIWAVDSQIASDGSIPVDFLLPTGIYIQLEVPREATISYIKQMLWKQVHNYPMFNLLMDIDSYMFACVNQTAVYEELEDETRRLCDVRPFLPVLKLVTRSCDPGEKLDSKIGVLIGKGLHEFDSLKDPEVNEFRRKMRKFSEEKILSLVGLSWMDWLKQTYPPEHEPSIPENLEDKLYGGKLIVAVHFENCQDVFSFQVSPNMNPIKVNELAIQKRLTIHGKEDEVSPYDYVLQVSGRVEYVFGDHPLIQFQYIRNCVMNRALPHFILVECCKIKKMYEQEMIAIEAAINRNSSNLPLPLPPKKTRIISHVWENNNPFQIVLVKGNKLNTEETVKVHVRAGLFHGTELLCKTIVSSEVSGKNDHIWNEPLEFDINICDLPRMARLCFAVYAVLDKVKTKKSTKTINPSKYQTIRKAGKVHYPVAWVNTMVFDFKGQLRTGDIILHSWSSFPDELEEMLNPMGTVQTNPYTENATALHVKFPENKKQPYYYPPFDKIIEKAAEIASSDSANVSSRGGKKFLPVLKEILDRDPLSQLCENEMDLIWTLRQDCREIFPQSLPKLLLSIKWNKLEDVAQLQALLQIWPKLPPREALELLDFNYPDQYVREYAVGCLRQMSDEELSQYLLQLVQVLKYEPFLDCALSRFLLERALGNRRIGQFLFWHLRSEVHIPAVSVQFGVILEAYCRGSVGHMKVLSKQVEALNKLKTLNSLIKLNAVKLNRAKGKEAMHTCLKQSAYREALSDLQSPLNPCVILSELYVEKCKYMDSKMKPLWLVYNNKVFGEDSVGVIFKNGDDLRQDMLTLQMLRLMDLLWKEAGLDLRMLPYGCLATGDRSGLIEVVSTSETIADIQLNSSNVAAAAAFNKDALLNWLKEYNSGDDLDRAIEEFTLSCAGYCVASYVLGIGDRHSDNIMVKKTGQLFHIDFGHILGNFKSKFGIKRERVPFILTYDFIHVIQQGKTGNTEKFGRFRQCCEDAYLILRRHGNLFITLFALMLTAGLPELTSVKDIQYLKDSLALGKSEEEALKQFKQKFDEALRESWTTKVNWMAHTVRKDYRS
# Sequence (P27986 whole entry partner): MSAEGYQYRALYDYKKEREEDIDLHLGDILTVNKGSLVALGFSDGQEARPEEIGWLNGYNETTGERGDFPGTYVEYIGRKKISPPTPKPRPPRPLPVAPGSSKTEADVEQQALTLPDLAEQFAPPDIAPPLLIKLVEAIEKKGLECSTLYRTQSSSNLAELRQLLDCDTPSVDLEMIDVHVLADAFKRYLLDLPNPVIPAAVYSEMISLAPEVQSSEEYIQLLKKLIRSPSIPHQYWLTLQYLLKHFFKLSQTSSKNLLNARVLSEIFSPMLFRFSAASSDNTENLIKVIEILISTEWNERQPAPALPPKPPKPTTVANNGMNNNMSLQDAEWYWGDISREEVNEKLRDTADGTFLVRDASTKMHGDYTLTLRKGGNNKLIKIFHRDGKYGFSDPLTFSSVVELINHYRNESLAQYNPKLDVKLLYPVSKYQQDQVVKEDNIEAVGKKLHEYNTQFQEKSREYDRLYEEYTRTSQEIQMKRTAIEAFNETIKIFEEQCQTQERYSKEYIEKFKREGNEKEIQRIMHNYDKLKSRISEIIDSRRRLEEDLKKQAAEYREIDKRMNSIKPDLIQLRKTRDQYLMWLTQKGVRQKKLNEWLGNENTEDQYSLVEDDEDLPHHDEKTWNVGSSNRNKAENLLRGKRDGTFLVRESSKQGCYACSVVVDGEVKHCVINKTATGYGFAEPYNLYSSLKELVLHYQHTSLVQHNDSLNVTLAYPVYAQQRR
# ASSAY_NAME: Human PI3K beta enzyme assay (HTRF)
# Type: biochemical
# CONDITION_LABEL: concentration not given; b1387 states 1.1 μM for PI3K α and β; read-out: p110 beta Percent Inhibition
OBSERVATION_TYPE: inhibition at 1.1 µM (%)
Please state the figure in %; there is no need to write the unit.

Known inhibition at 1.1 µM results, listed for orientation:
- COMPOUND: "Cc1ccc(C(O)c2cc(-c3ccncc3)sc2-c2nnc[nH]2)c(C)c1 (centres unmarked) [Compound 141]"
  TARGET_OF_ASSAY: "Human PI3K beta (Homo sapiens, UniProt P42338)"
  TEST_RESULT: 89
- COMPOUND: "CC(=O)Nc1cc(-c2cc(C(c3ccc(Cl)cc3)N3CC(F)(F)C3)c(-c3nnc[nH]3)s2)ccn1 (centres unmarked) [Compound 216]"
  TARGET_OF_ASSAY: "Human PI3K beta (Homo sapiens, UniProt P42338)"
  TEST_RESULT: 91

[Q] Assign inhibition at 1.1 µM to the following record: OC(c1cc(-c2ccncc2)sc1-c1nnc[nH]1)c1cccc2nccnc12 (centres unmarked) [Compound 169]
[A] 89
